measurementProtocol: Ratio of drug level in brain to plasma in rat at 100 mg/kg, ip at 5 hrs
Format: ADME, organism-based
Parameters: dose 100 mg/kg, route intraperitoneal
statedConditions: brain and plasma, read-out: BPR
assayEndpoint: Kp at 5 h

molecule: CCC(C)[C@@]1(NC(C)=O)CCN([C@@H](CCc2ccccc2)C(=O)N[C@@H](Cc2cc(F)cc(F)c2)[C@H](O)CNCc2cccc(OC)c2)C1=O (stereo partly specified)
testValue: < 0.05

* * *

systemName: Beta-secretase 1 (Homo sapiens, UniProt P56817)
Sequence (P56817 whole entry): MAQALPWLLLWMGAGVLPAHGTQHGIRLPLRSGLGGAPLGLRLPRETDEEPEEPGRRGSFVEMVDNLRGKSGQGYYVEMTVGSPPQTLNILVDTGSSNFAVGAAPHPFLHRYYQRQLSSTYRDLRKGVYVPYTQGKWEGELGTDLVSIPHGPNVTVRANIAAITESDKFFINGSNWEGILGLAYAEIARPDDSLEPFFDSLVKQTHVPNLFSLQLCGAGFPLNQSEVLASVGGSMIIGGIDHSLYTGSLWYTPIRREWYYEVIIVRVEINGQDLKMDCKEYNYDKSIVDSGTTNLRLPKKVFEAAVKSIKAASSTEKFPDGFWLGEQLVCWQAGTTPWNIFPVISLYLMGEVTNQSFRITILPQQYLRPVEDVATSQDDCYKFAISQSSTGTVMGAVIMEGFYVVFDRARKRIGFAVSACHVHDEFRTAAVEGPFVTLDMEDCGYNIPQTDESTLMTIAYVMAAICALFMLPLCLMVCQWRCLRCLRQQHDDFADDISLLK
measurementProtocol: Inhibition of BACE-1 in human HEK293 cells overexpressing APP 695 swedish mutation assessed as inhibition of amyloid beta (1 to 40) production by immunoprecipitation assay
Format: cell-based
assayEndpoint: IC50 (nM)

compound: CCCS[C@H]1CN[C@@H]([C@@H](O)[C@H](Cc2cc(F)cc(F)c2)NC(=O)[C@H](CCc2ccccc2)N2CC[C@](NC(C)=O)(C(C)CC)C2=O)C1 (stereo not given in full)
resultQualifier: =
testValue: 15
//
compound: CCCC[C@@H]1CCN([C@@H](C)C(=O)N[C@@H](Cc2cc(F)cc(F)c2)[C@H](O)[C@H]2C[C@@H](S(=O)(=O)CCC)CN2)C1=O
resultQualifier: >
testValue: 330
//
compound: CCCS(=O)(=O)[C@H]1CN[C@@H]([C@@H](O)[C@H](Cc2cc(F)cc(F)c2)NC(=O)[C@H](CCc2ccccc2)N2CC[C@](NC(C)=O)(C(C)CC)C2=O)C1 (stereo not given in full)
resultQualifier: =
testValue: 5
//
compound: CCCS(=O)(=O)[C@@H]1CN[C@@H]([C@@H](O)[C@H](Cc2cc(F)cc(F)c2)NC(=O)[C@H](CCc2ccccc2)N2CC[C@](NC(C)=O)(C(C)CC)C2=O)C1 (stereo not given in full)
resultQualifier: =
testValue: 45
//
compound: CC(=O)N[C@]1(CC(C)C)CCN([C@@H](CCc2ccccc2)C(=O)N[C@@H](Cc2cc(F)cc(F)c2)[C@H](O)C2Cc3ccccc3CN2)C1=O (stereo not given in full)
resultQualifier: =
testValue: 10

Reference source for all entries: ChEMBL document CHEMBL1914436
